The values you see were collected from PubChem BioAssay (NCI).

Test system: KM12 colon
Experiment: NCI-60 one-dose screen, 48 h (100 = growth as untreated, 0 = no growth, -100 = all killed)
Settings: 10 µM unless noted
Compounds without any hit were thinned out: in the full panel of roughly 83,000, 20% have a hit.
assay.metric: growth (%)
# output: bare number, implied unit %

- compound: "Nc1cc(C(=O)N/N=C\\c2ccc(OC(F)F)c(OC3CCCC3)c2)nn1CC(O)c1ccccc1 (stereo not given)"
  assay.metric: "growth"
  assay.value: 95.6
- compound: "O=S(=O)(NCCCNc1nccc(-c2[nH]c(-c3ccccc3)nc2-c2ccc(F)c(O)c2)n1)c1cccc(F)c1"
  assay.metric: "growth"
  assay.value: 88.9
- compound: "O=C(/C=C/c1ccccc1)c1cccc(O)c1"
  assay.metric: "growth"
  assay.value: 88.8
- compound: "Cc1nc(N)sc1-c1csc(Nc2ccc(C(F)(F)F)cc2)n1"
  assay.metric: "growth"
  assay.value: 10.4
- compound: "O=C(CCCCCCN1CC(=O)N2[C@@H](C3CC3)c3[nH]c4ccccc4c3C[C@H]2C1=O)NO"
  assay.metric: "growth"
  assay.value: 84.2
- compound: "C[C@H]1OCC2(CCN(c3cnc(C(=O)Nc4cc(F)cc5cccnc45)cn3)CC2)[C@H]1N"
  assay.metric: "growth"
  assay.value: 82.5
- compound: "C#Cc1cc(OC)c(C(=O)Nc2ccc(F)cc2C(=O)Nc2cccc(S(=O)(=O)C(F)(F)F)c2)cn1"
  assay.metric: "growth"
  assay.value: 4.44
- compound: "COc1ccc2[nH]cc(/C=N/Nc3ccnc4cc(Cl)ccc34)c2c1"
  assay.metric: "growth"
  assay.value: -78
- compound: "Cc1[nH]c(C(=O)Nc2ccc(C(N)=O)cc2N2CCOC(C)C2)c(Cl)c1Cl (stereo not given)"
  assay.metric: "growth"
  assay.value: 104
- compound: "O=C(N/N=C/c1cc2ccccc2nc1Cl)c1cc(-c2nc3ccccc3[nH]2)nc2ccccc12"
  assay.metric: "growth"
  assay.value: 97.2

Please give the documented growth of O=C(/C=C/c1cc(Cl)ccc1Cl)Nc1ncc(Cc2ccc(Cl)cc2)s1
13.1

Please give the documented growth of Cc1ccc([C@H]2c3[nH]c4ccccc4c3C[C@H]3C(=O)N(CCCCCCC(=O)NO)CC(=O)N23)s1
74.3

Please give the documented growth of Cc1ccc(/C(N)=N/C(N)=N/c2nc3ccccc3s2)cc1
64.1

Please give the documented growth of COc1ccc(/C(=N\N=C(N)N)c2ccc(Cl)cc2)cc1OC
61.5

Please give the documented growth of O=C1Nc2ccccc2/C1=N\c1nnc(-c2ccccc2)o1
96.7

Please give the documented growth of CC1=C(C)C(=O)C(Nc2ccc(C)c(C)c2)=C(Br)C1=O
99.8

Please give the documented growth of O=C(COc1ccc(/C=C2\C(=O)Nc3ccc(F)cc32)cc1)Nc1ccccc1
97.8

Please give the documented growth of COC(=O)c1cccc(NC2=CC(=O)C(C)=C(C)C2=O)c1
97.1

Please give the documented growth of O=C(Nc1ccc(Cl)c(C(F)(F)F)c1)Nc1ccc2c(ccn2C(=O)c2cccc(F)c2)c1
11

Please give the documented growth of COc1ccc2c(c1)c(-c1nnc(N)nc1-c1c[nH]c3ccc(F)cc13)cn2C
22.9
